Taken from PubChem BioAssay (NCI).

TEST_SUMMARY: NCI Yeast Anticancer Drug Screen. Data for the bub3 strain (AID 167)
ASSAY_SETUP: S. cerevisiae bub3 mutant strain, at 100.0 µM
Compounds without any hit were thinned out: in the full panel of roughly 79,000, 15% have a hit. Activity calls are given as the source filed them. Rule as the data show it: active = growth inhibition above about 70%; inactive = the rest.
Possible outcomes: active, inactive

{"MOLECULE": "Cc1nc2ccc(NCCN(C)C)c3c(=O)c4ccccc4n1c23", "CLASSIFICATION": "inactive"}
{"MOLECULE": "CCc1nc2ccc(N=Nc3c(O)ccc4ccccc34)cc2[nH]1", "CLASSIFICATION": "active"}
{"MOLECULE": "Cc1ccc(N(C=O)c2c([N+](=O)[O-])cc([N+](=O)[O-])c3c2=[N+]([O-])CN=3)cc1", "CLASSIFICATION": "active"}
{"MOLECULE": "COc1cc(C(C)(C)C)cc(OC)c1C(O)(c1c(OC)cc(C(C)(C)C)cc1OC)c1c(OC)cc(C(C)(C)C)cc1OC", "CLASSIFICATION": "active"}
{"MOLECULE": "c1ccc(C2=NNC3c4ccccc4-c4ccccc4N3C2)cc1 (stereo not given)", "CLASSIFICATION": "inactive"}
{"MOLECULE": "Cc1nc2ccccc2c(=O)n1NC(=O)c1ccc(CS)cc1", "CLASSIFICATION": "active"}
{"MOLECULE": "O=C(Cc1ccccc1)c1ccc(O)cc1", "CLASSIFICATION": "active"}
{"MOLECULE": "O=S(=O)(O)c1ccc2c(N=Nc3c(O)ccc4ccccc34)cccc2c1", "CLASSIFICATION": "active"}
{"MOLECULE": "O=C(N/N=C/c1ccc2c(c1)CCC2)c1ccccc1[N+](=O)[O-]", "CLASSIFICATION": "active"}
{"MOLECULE": "O=C(Nc1ccn(C2CC(O)C(COC(c3ccccc3)(c3ccccc3)c3ccccc3)O2)c(=O)n1)c1ccccc1 (stereo not given)", "CLASSIFICATION": "active"}

* * *

TEST_SUMMARY: NCI Yeast Anticancer Drug Screen. Data for the sgs1 mgt1 strain (AID 161)
ASSAY_SETUP: S. cerevisiae sgs1 mgt1 strain, at 50.0 µM (retest, dose inferred, filed as 5.0)
This is part of a sample that, as a whole, favours compounds with a hit. Of some 79,000 tested, about 15% had one in any assay. Calls of active or inactive are those of the source. Cut-off read from the data, not from the text of the source: active = growth inhibition above about 70%; inactive = the rest.
Possible outcomes: active, inactive

{"COMPOUND": "Nc1ccc2ncc(Nc3ccc(Cl)c(Cl)c3)nc2c1", "CLASSIFICATION": "active"}
{"COMPOUND": "CN(C)CCn1c2ccccc2c2nc3cc4ccccc4cc3nc21", "CLASSIFICATION": "active"}
{"COMPOUND": "Cc1ccc2oc(-c3cccc(N)c3)nc2c1", "CLASSIFICATION": "inactive"}
{"COMPOUND": "CCCC(=O)OC(OC(=O)CCC)c1ccc([N+](=O)[O-])o1", "CLASSIFICATION": "inactive"}
{"COMPOUND": "O=C1OC(/C=C/c2ccccc2)Sc2ccccc21 (configuration not stated)", "CLASSIFICATION": "inactive"}
{"COMPOUND": "CNC(=O)OCc1c(COC(=O)NC)c(C)n(-c2ccc(Cl)c(Cl)c2)c1C", "CLASSIFICATION": "inactive"}
{"COMPOUND": "COc1ccc(/C=C2\\CCc3ccccc3C2=O)cc1OC", "CLASSIFICATION": "inactive"}
{"COMPOUND": "O=S(=O)(O)c1ccc2c(N=Nc3c(O)ccc4ccccc34)cccc2c1", "CLASSIFICATION": "active"}
{"COMPOUND": "CCc1nc2ccc(N=Nc3c(O)ccc4ccccc34)cc2[nH]1", "CLASSIFICATION": "inactive"}
{"COMPOUND": "O=[N+]([O-])c1ccc2nnnn2c1", "CLASSIFICATION": "active"}
{"COMPOUND": "Nc1cccc2cc(Cl)cnc12", "CLASSIFICATION": "inactive"}
{"COMPOUND": "Nc1nc(Nc2ccccc2)nc(Nc2ccccc2)n1", "CLASSIFICATION": "inactive"}
